This collection of values is drawn from ChEMBL document CHEMBL1133080.

Documented IC50 across a set of molecules
target: Platelet-derived growth factor receptor (Mus musculus, UniProt P05622+P26618); assay: Inhibition of PDGF-receptor kinase
Could you give me the number in nM? Just the number is fine.

Field: example entries. Status: answers known.
Nc1ncnc2c1c(-c1ccccc1)cn2-c1cccc(CO)c1 10000
COc1cccc(-c2cn(-c3ccc(CNCCO)cc3)c3ncnc(N)c23)c1 600
COc1cccc(-c2cn(-c3ccc(CCN(C)CCO)cc3)c3ncnc(N)c23)c1 300

Please find the next molecule below.
// field: IC50; key: COc1cccc(-c2cn(-c3ccccc3)c3ncnc(N)c23)c1 ; value = 2500

----------
target: Proto-oncogene tyrosine-protein kinase Src (Gallus gallus); assay: Tested for inhibition of protein tyrosine kinase c-Src phosphorylation
quantity name: pIC50
FYI, pIC50 means -log10 of a concentration in mol per litre.

A selection of reference data follows.
Nc1ncnc2c1c(-c1ccccc1)cn2-c1ccccc1 7.00
COc1cccc(-c2cn(-c3ccc(CNCCO)cc3)c3ncnc(N)c23)c1 7.52
Nc1ncnc2c1c(-c1ccccc1)cn2-c1cccc(CNCCO)c1 8.00
COc1cccc(-c2cn(-c3ccc(CCN(C)CCO)cc3)c3ncnc(N)c23)c1 7.52

Entry Nc1ncnc2c1c(-c1cccc(Cl)c1)cn2-c1ccccc1 — recorded pIC50 = 6.70

Query CCOC(=O)c1ccc(-c2cn(-c3ccccc3)c3ncnc(N)c23)cc1 yields pIC50 of 5.00

The reported pIC50 of the molecule COc1cccc(-c2cn(-c3ccccc3)c3ncnc(N)c23)c1 was 7.30

Measured pIC50 of COc1cccc(-c2cn(-c3ccc(CC(=O)NCCO)cc3)c3ncnc(N)c23)c1 : 7.70

pIC50 in this record for Nc1ncnc2c1c(-c1ccccc1)cn2-c1ccccc1CO : 6.52

Notebook: Nc1ncnc2c1c(-c1ccccc1)cn2-c1ccccc1CNCCO , pIC50 read as 5.30

pIC50 recorded for this molecule, Nc1ncnc2c1c(-c1ccccc1)cn2-c1cccc(CO)c1 , is 7.22

So for Cc1ccccc1-c1cn(-c2ccccc2)c2ncnc(N)c12 , the logged pIC50 turned out to be 5.22
